Observation type: melting point

INSERT INTO assay_data (compound, result) VALUES
  ('COc1cc(F)nc(N)n1', '171 to 173 °C'),
  ('CCOC(=O)c1c(C)nn2c(-c3ccc(Cl)cc3Cl)c(C)ccc12', '120 to 124 °C'),
  ('CCCCCCC=CCC1CC(=O)N(c2cc(Cc3n[nH]c(=O)c4ccccc34)ccc2F)C1=O (stereo unspecified)', '146 to 149 °C'),
  ('CC1(C)COP(=O)(Cc2ccc([N+](=O)[O-])cc2)OC1', '176 to 177 °C'),
  ('CCOC(=O)c1cc2c3n(ccc-2n1)CC(C(F)(F)F)=N3', '230 to 231 °C'),
  ('O=P(O)(O)Cc1ccc(-c2ccc(CP(=O)(O)O)cc2)cc1', '114 °C');
